target.of.assay: Serine/threonine-protein kinase pim-2 (Homo sapiens, UniProt Q9P1W9)
Sequence (Q9P1W9 whole entry): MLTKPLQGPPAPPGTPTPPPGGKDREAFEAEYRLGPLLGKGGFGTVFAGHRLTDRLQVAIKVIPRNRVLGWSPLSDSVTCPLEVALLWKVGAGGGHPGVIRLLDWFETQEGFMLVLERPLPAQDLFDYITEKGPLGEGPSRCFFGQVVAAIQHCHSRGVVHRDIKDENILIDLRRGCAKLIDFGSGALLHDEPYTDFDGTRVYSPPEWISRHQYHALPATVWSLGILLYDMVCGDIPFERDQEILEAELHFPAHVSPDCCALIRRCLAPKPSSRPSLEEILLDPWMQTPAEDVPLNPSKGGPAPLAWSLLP
pKi: −log10 of the molar value.
attribute.measured: pKi

I'd like to know its pKi. The compound in question is `CCn1c2cc(Cl)c(F)cc2c(=O)c2c(=O)on(C)c21`
< 5.85

----------
I'd appreciate it if you could supply pKi values for the items below.
Please express pKi as -log10 of the molar concentration.

What is its pKi for Serine/threonine-protein kinase pim-1 (Homo sapiens)? Entry: `CCCCn1c2noc(=O)c-2c(O)c2cc(F)c(Cl)cc21`
7.82

What is its pKi for Serine/threonine-protein kinase pim-1 (Homo sapiens)? Entry: `CCn1c2cc(Cl)c(F)cc2c(=O)c2c(=O)on(C)c21`
7.30

What is its pKi for Serine/threonine-protein kinase pim-1 (Homo sapiens)? Entry: `CC(C)n1c2noc(=O)c-2c(O)c2cc(F)c(Cl)cc21`
7.91
